# Test system: K562
# ASSAY_REMARKS: NCI tumour cell line growth inhibition, 48 h
Activity calls are given as the source filed them. No stated cut-off is given here; in the data, active = GI50 up to about 1.1 µM and inactive = higher.

COMPOUND | GI50
[N-]=[N+]=Nc1c(Cc2ccccc2)c(=O)oc2ccccc12 | 18.6 µM (inactive)
C=C1C(=O)C23C(O)CC4C(C)(C)CCC(O)C4(C)C2CC(OC(C)=O)C1[C@H]3O (stereo partly specified) | 1.84 µM (inactive)
COc1cc2ccc(CC(N)=O)cc2cc1OC | > 100 µM (inactive)
COC(=O)C(Cc1ccccc1)NP(=O)(O)OCC1OC(n2ccc(N)nc2=O)C(O)C1O (stereo unspecified) | > 100 µM (inactive)
CC(=O)/C(=C(/Br)I)c1ccccc1 | 2.82 µM (inactive)
C/C=C(/I)CBr | 5.15 µM (inactive)
COc1cc2c[n+](C)c3c4ccccc4ccc3c2cc1OC.COc1cc2cnc3c4ccccc4ccc3c2cc1OC | 9.55 µM (inactive)
C=C(C)C1C/C=C(/C)CCCC2(CCC3=C(CC(C(=C)C)C/C=C(/C)CCC3)O2)C(=O)C1 (stereo unspecified) | > 100 µM (inactive)
Cc1ccc(NC(=O)CCC(=O)C2CC(=O)CC/C2=N\NC(=O)c2cc3ccccc3cc2O)cc1C (stereo unspecified) | 8.18 µM (inactive)
O=[N+]([O-])c1ccc(C2=NOC(c3ccc(Cl)cc3)N2C23CC4CC(CC(C4)C2)C3)cc1 (stereo unspecified) | > 100 µM (inactive)
C(=N\OCCc1ccccc1)/c1cccnc1 | > 100 µM (inactive)

====

# System: NCI-H460
# ASSAY_REMARKS: NCI tumour cell line growth inhibition, 48 h
Calls of active or inactive are those of the source. Cut-off read from the data, not from the text of the source: active = GI50 up to about 1.1 µM and inactive = higher.

MOLECULE | GI50
Nc1c(-c2ccc(-c3c(N)[n+]([O-])c4ccccc4[n+]3[O-])cc2)[n+]([O-])c2ccccc2[n+]1[O-] | 14.3 µM (inactive)
Cc1cc(-c2nc3cccc(F)c3s2)ccc1N | > 20.4 µM (inactive)
O=C1OC2C=CCC1C2 (stereo not given) | > 100 µM (inactive)
O=C1C2=C(C(=O)c3c(O)ccc(O)c31)[C@@H](O)[C@@H](O)[C@@H](O)C2 | 4.71 µM (inactive)
N#Cc1c(-c2cccc(Br)c2)cc(-c2ccc(Cl)cc2)nc1N | 21.2 µM (inactive)
COC(=O)OC[C@H]1O[C@@H](n2cc(C)c(=O)[nH]c2=O)CC1OC(=O)OC (stereo not given in full) | > 100 µM (inactive)
CCN(CC)C(=O)c1cc(OC(C)C)ccc1-c1c(C)cc(OC(C)C)c(OC)c1OC | 36.1 µM (inactive)
O=C1CC(CC(OCc2ccccc2)C(COCc2ccccc2)OCc2ccccc2)CC(=O)N1 (stereo not given) | 32.4 µM (inactive)
c1ccc([P+](CC[P+](c2ccccc2)(c2ccccc2)c2ccccc2)(c2ccccc2)c2ccccc2)cc1 | 5.79 µM (inactive)
O=CN1CCN(C(=O)c2ccc(Cl)cc2Cl)C1=S | > 100 µM (inactive)

====

# Test system: SF-539
# ASSAY_REMARKS: NCI tumour cell line growth inhibition, 48 h
The source made the active and inactive calls. No stated cut-off is given here; in the data, active = GI50 up to about 1.1 µM and inactive = higher.
Each item that follows carries a reported GI50.

COMPOUND | GI50
CCOC(=O)c1cc2cc(Cc3ccc4[nH]c(C(=O)OCC)cc4c3)ccc2[nH]1 | 13.7 µM (inactive)
COc1cc(/C=N/n2c(C)n[nH]c2=O)cc(OC)c1OC | > 100 µM (inactive)
COC(=O)C1C2CC3C1C3C2C(=O)OC (stereo not drawn) | > 100 µM (inactive)
Cc1cc2c(cc1C)[n+]([O-])c(-c1c(Cl)cccc1Cl)c(N)[n+]2[O-] | 27.9 µM (inactive)
COc1cc(C2C(=O)C(Cl)N2Nc2nc(C)cc(O)n2)cc(OC)c1OC (stereo not drawn) | 13.5 µM (inactive)
CC1CN=C(N(C(=O)Nc2ccccc2)c2ccccc2)S1 (stereo not drawn) | > 10 µM (inactive)
Cc1cc2c(ccc[n+]2[O-])[n+]([O-])c1 | > 100 µM (inactive)
COc1ccc(/C=C2\N=C3NC(=O)C(N4CCCCC4)=C(N)N3C2=O)cc1 | > 100 µM (inactive)
C=CCNC(=O)N(CCC)CCCCC(NC(C)=O)C(=O)NCc1ccccc1 (stereo not drawn) | > 100 µM (inactive)
COC(=O)c1c(O)ccc2c1c1c(n2Cc2ccccc2OC)C(=O)c2ccccc2C1 | 63.8 µM (inactive)
CCOC(=O)c1ccc(NC(=O)O/N=C(/Cl)CCl)cc1 | 69 µM (inactive)
O=c1[nH]c(=O)n(COCCO)c2ccc(Br)cc12 | > 100 µM (inactive)
Cc1nnc(Nc2ccc(Cl)cc2)o1 | > 10 µM (inactive)
COc1cc(C(=O)O)c([N+](=O)[O-])c(OC)c1OC | > 100 µM (inactive)
O=C1C[C@@]23CCC4(CC2=CCC[C@H]3O1)OCCO4 | > 100 µM (inactive)
Nc1c(-c2ccc(-c3c(N)[n+]([O-])c4ccccc4[n+]3[O-])cc2)[n+]([O-])c2ccccc2[n+]1[O-] | 4.92 µM (inactive)
O=C1CCC(c2ccccc2)=NN1c1nsc2ccccc12 | > 100 µM (inactive)
CC(N/N=C(\S)N1CCN(c2ccccn2)CC1)c1cccc[n+]1[O-] (stereo not drawn) | 17.4 µM (inactive)
C=C1C(=O)OC2CC3(C)CCCC(C)C3=CC12 (stereo not drawn) | 1.35 µM (inactive)
CC(Oc1cc2oc(=O)cc(-c3ccccc3)c2cc1Cl)C(=O)O (stereo not drawn) | > 100 µM (inactive)
O=C(NC1C/C(=N/O)c2c(Br)sc(Br)c21)C(F)(F)F (stereo not drawn) | 17.3 µM (inactive)
CN(C)CCCNc1nnc(NCCCN(C)C)c2c(=O)c3sccc3[nH]c12 | 5.51 µM (inactive)
Clc1cc(Cl)cc(Nc2nc3ccccc3nc2-c2cccs2)c1 | 36.1 µM (inactive)

Reference source: ChEMBL document CHEMBL1201862
